All figures here come from patent US11555212B2.

- TGT: SULT1A1 from rat (Rattus norvegicus) (Rattus norvegicus, UniProt P17988)
- Construct: 1, 3, 4, 5, and 6 were cloned amplified from liver tissue cDNA; expressed in transfected cells
- Sequence (P17988 whole entry): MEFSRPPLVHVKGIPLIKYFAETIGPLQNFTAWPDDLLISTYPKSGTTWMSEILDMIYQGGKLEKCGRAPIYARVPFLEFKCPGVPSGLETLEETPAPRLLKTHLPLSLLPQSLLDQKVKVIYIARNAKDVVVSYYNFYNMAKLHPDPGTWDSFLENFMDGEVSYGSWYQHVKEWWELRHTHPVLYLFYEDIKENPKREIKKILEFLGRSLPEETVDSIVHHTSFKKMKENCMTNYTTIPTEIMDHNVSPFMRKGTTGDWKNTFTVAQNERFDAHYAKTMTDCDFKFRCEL
- PROTOCOL_TEXT: Percent reduction in concentration of phenolic compounds by E. coli expressing a sulfotransferase, compared to control strain
- Assay type: cell-based
- COND: E. coli BL21(DE3)pLysS expressing SULT1A1 rat, compared to the control strain; M9, 1 mM IPTG, single substrate at start concentration of Table 14; overnight 37° C.
QUANTITY_MEASURED: Percent reduction in concentration, SULT1A1 (%)
One number for each entry, in %.

molecule=COc1cc(C(=O)O)ccc1O assay_result=33
molecule="O=C(O)CCc1ccc(O)cc1 [3-(4-Hydroxyphenyl)propionic acid]" assay_result=3
molecule=O=c1cc(-c2ccc(O)cc2)oc2cc(O)cc(O)c12 assay_result=41
molecule="O=C(O)c1ccc(O)cc1 [4-hydroxybenzoic acid]" assay_result=5
molecule=O=c1cc(-c2ccc(O)c(O)c2)oc2cc(O)cc(O)c12 assay_result=27

Task item: Request the reported Percent reduction in concentration, SULT1A1 associated with COc1ccc(C=CC(=O)O)cc1O [3-Hydroxy-4-methoxycinnamic acid]
Reply: 51
